molecular target: HRgpA-6H (Porphyromonas gingivalis) (UniProt P28784); test: ELISA, coated HRgpA-6H
Entries and their Ratio OD(Variant)/OD(WT)

binder	Ratio OD(Variant)/OD(WT)
KB001 mouse Fab VH Y106I (Fab, V domains shown) VH: EVQLKQSGPGLVAPSQSLSITCTVSGFSLSIYSVHWVRQPPGKGLEWLGMIWGGGSSDYNSALKSRLSISKDNSKSQVFLKMNSLQTDDTAMYYCARNGNFYAMDIWGQGTSVTVSS VL: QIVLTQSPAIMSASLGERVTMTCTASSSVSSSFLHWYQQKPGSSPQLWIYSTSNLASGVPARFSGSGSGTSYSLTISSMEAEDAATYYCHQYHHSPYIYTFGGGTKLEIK	1.04
KB001 mouse Fab VH S28A (Fab, V domains shown) VH: EVQLKQSGPGLVAPSQSLSITCTVSGFALSIYSVHWVRQPPGKGLEWLGMIWGGGSSDYNSALKSRLSISKDNSKSQVFLKMNSLQTDDTAMYYCARNGNFYAMDYWGQGTSVTVSS VL: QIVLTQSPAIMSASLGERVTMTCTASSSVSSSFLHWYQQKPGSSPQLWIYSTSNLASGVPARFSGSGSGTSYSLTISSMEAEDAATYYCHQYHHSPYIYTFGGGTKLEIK	0.904
KB001 mouse Fab VL S28T/S12R (Fab, V domains shown) VH: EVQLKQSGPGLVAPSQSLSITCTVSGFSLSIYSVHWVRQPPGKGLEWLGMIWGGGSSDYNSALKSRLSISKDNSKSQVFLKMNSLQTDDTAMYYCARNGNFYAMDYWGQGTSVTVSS VL: QIVLTQSPAIMRASLGERVTMTCTASSTVSSSFLHWYQQKPGSSPQLWIYSTSNLASGVPARFSGSGSGTSYSLTISSMEAEDAATYYCHQYHHSPYIYTFGGGTKLEIK	0.995
KB001 mouse Fab VL N54K (Fab, V domains shown) VH: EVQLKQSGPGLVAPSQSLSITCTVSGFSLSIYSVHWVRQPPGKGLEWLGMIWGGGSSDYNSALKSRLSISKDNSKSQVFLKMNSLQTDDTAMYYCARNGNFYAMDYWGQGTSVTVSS VL: QIVLTQSPAIMSASLGERVTMTCTASSSVSSSFLHWYQQKPGSSPQLWIYSTSKLASGVPARFSGSGSGTSYSLTISSMEAEDAATYYCHQYHHSPYIYTFGGGTKLEIK	0.928
KB001 mouse Fab VL S30W (Fab, V domains shown) VH: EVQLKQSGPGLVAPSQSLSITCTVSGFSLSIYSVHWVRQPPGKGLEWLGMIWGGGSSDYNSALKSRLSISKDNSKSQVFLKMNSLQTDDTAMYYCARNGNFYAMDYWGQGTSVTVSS VL: QIVLTQSPAIMSASLGERVTMTCTASSSVWSSFLHWYQQKPGSSPQLWIYSTSNLASGVPARFSGSGSGTSYSLTISSMEAEDAATYYCHQYHHSPYIYTFGGGTKLEIK	0.955
